study-target: KV7.1 (KCNQ1) channel, IK(S) (Rattus norvegicus, UniProt Q9Z0N7)
Construct: native IK(S) in H9c2 cells
Sequence (Q9Z0N7 whole entry): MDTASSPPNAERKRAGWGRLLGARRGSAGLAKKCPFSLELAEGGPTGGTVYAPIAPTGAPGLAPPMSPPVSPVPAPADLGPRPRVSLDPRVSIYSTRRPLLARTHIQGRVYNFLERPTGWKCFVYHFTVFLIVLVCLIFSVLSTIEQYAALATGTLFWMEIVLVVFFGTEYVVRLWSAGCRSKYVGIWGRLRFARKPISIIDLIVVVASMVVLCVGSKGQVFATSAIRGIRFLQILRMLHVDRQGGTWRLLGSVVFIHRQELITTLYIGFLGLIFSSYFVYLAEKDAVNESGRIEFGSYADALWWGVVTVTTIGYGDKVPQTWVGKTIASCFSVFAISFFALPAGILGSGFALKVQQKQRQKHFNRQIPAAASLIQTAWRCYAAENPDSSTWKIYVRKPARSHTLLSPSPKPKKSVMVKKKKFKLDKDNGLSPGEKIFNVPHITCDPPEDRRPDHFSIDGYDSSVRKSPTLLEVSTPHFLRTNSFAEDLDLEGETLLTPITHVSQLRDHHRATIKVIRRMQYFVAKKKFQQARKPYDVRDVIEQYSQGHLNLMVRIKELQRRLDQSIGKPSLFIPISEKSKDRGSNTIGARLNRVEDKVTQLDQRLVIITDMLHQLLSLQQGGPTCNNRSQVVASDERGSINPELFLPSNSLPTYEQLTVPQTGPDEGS
measurement-description: whole-cell patch clamp of native IK(S) in H9c2 cells
recorded-metric: pIC50
One number for each entry, as −log10 of the molar value.

Measured pIC50, CS(=O)(=O)CCNCc1ccc(-c2ccc3ncnc(Nc4ccc(OCc5cccc(F)c5)c(Cl)c4)c3c2)o1 : 5.74
